# TARGET: Angiotensin-converting enzyme (Homo sapiens)
# Sequence (P12821 whole entry): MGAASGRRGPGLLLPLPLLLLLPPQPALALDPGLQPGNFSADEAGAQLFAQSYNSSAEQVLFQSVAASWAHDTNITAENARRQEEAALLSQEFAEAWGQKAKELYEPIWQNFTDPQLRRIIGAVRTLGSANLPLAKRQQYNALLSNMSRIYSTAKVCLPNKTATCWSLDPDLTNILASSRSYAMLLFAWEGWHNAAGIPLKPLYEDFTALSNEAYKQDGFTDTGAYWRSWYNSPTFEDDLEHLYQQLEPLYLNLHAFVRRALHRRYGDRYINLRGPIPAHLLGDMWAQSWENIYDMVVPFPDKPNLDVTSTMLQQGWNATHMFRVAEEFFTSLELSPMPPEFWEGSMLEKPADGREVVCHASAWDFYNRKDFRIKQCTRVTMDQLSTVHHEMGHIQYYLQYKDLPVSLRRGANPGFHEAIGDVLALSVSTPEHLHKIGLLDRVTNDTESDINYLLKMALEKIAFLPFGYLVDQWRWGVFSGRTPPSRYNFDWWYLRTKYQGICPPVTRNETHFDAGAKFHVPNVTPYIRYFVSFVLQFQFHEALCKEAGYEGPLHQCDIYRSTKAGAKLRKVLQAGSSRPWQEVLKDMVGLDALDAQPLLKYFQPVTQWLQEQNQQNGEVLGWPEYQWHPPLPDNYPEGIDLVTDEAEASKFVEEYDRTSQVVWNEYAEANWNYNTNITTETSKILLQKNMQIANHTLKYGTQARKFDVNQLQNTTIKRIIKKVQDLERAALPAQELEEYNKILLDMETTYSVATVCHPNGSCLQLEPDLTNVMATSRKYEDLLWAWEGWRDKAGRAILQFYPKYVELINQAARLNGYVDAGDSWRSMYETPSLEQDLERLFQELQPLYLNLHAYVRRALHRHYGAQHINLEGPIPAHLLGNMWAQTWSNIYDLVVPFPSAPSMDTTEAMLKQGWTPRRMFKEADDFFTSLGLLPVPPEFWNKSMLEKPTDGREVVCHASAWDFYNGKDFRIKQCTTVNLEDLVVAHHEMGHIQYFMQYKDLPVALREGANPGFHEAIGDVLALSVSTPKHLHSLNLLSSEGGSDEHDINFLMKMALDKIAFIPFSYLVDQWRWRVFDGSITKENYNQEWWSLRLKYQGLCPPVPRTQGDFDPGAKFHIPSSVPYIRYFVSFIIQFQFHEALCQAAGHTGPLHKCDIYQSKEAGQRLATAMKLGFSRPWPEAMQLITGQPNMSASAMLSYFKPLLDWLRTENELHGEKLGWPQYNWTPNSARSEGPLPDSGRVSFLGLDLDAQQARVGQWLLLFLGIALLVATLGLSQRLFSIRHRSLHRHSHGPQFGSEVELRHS
# TEST_NAME: Inhibition of human recombinant ACE
pIC50: −log10 of the molar value.

>  <COMPOUND>
O=C(O)CC(O)CCc1ccc(-c2ccccc2)cc1 (racemic)

>  <pIC50>
< 3.60

$$$$
>  <COMPOUND>
O=C(O)CC(O)CCc1ccc(-c2ccccc2)cc1 (single isomer, unassigned)

>  <pIC50>
< 3.60

$$$$
>  <COMPOUND>
O=C(O)CC(O)CCc1ccc(-c2ccccc2)cc1 (stereo in doubt)

>  <pIC50>
< 3.60

$$$$

###

# TEST_NAME: Solubility at pH 7.4
# Format: physicochemical
# MEASUREMENT_SETUP: buffer

>  <COMPOUND>
O=C(O)CC(O)CCc1ccc(-c2ccccc2)cc1 (racemic)

>  <UNIT_OF_MEASURE>
µg/mL

>  <solubility>
960

$$$$
